# TARGET_DESC: MAPKAPK5 (human) (UniProt Q8IW41)
# Sequence (Q8IW41 whole entry, looked up): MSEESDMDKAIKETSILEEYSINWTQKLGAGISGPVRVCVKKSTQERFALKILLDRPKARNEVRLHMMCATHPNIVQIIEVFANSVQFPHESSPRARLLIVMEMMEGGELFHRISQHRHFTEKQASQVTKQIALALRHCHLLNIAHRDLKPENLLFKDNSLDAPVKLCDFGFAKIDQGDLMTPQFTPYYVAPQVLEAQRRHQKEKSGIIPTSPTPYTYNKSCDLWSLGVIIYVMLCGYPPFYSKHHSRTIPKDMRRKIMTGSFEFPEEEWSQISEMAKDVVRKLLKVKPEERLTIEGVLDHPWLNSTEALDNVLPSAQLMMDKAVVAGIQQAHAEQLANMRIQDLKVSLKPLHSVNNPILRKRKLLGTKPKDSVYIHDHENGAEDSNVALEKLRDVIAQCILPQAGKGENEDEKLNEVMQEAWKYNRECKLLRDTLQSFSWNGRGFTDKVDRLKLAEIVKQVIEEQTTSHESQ
# ASSAY_PROTOCOL: radiometric filter-binding kinase assay, Kinase HotSpot
# ASSAY_CONTEXT: compound 0.5 µM; ATP 10 µM
ASSAY_ENDPOINT: residual activity (%)
Numbers only, in %.

Recorded residual activity, per entry:
CCN(CC)C(=O)c1ccc(Nc2nc(OCC3CCCCC3)c3nc[nH]c3n2)cc1	87.8
c1ccc(-c2n[nH]c3c2oc2ccccc23)cc1	103
CCN(CC)CCNC(=O)c1c(C)[nH]c(/C=C2\C(=O)Nc3ccc(Cl)cc32)c1C	91.6
CNc1cc2c(Nc3cccc(Br)c3)ncnc2cn1	99.3
Nc1ncnc2[nH]nc(Nc3ccc(F)cc3)c12	80.9

Consider the additional compound presented here.
Q: Which residual activity is listed for `COc1ccc(COc2ccc(Cc3cnc(N)nc3N)cc2OC)cc1` ?
Ans: 87.5
